Assignment: determine reported LDH (% of ctl) for the given molecules.
System: primary cortico-hippocampal neuron cultures
Test: lactate dehydrogenase (LDH) activity assay in parallel neuron cultures
Details: Primary Screening; table sorted by Aβ1-40
Structures can show the parent of a compound that is named as a salt.

Reported LDH (% of ctl) ( CCOC(=O)NNc1nncc2ccccc12 [Todralazine Hydrochloride] ) = 100.6 % of ctl

Reported LDH (% of ctl) ( `CCN1C[C@]2(C)CC[C@H](OC)[C@@]34C1[C@]1(OCO[C@@]15C[C@H](OC)[C@H]1C[C@]3(O)[C@@H]5[C@H]1OC)[C@@H](OC(C)=O)[C@H]24` ) = 118.9 % of ctl

Reported LDH (% of ctl) ( COc1cc([S+](C)[O-])ccc1-c1nc2ncccc2[nH]1 (centres unmarked) ) = 111.1 % of ctl

Reported LDH (% of ctl) ( CC(N)CCCC(C)(C)O (centres unmarked) [Heptaminol Hydrochloride] ) = 103.4 % of ctl

Reported LDH (% of ctl) ( CC(C)OC(=O)C(C)(C)Oc1ccc(C(=O)c2ccc(Cl)cc2)cc1 [Fenofibrate] ) = 140.0 % of ctl

Reported LDH (% of ctl) ( CCCCCCCCNC(C)C(O)c1ccc(SC(C)C)cc1 (centres unmarked) ) = 396.1 % of ctl

Reported LDH (% of ctl) ( CCOC(=O)C1=C(COCCN)NC(C)=C(C(=O)OC)C1c1ccccc1Cl (centres unmarked) [Amlodipine Besylate] ) = 1188.9 % of ctl

Reported LDH (% of ctl) ( CC(COc1ccccc1)N(CCCl)Cc1ccccc1 (centres unmarked) [Phenoxybenzamine Hydrochloride] ) = 81.3 % of ctl
